Tested on: Escherichia coli
Experiment: Antibacterial activity against Escherichia coli ATCC 35218 after 24 hrs by MTT assay
Type: functional
Settings: ATCC 35218, 24 h
Recorded log10 MIC by entry
PROPERTY_MEASURED: log10 MIC (log10 of the value in µg/mL)

SMILES: S=C(Nc1ccccc1)Nc1ccc(/N=C/c2ccc(Br)cc2)cc1
TARGET_ENTITY: Escherichia coli
READOUT_NUMBER: 1.40
--
SMILES: Oc1ccc(Cl)cc1/C=N/c1ccccc1NC(=S)Nc1ccccc1
TARGET_ENTITY: Escherichia coli
READOUT_NUMBER: 0.50
--
SMILES: O=[N+]([O-])c1ccc(/C=N/c2ccc(NC(=S)Nc3ccccc3)cc2)cc1
TARGET_ENTITY: Escherichia coli
READOUT_NUMBER: 1.40
--
SMILES: COc1cccc(/C=N/c2ccc(NC(=S)Nc3ccccc3)cc2)c1
TARGET_ENTITY: Escherichia coli
READOUT_NUMBER: 1.70
--
SMILES: Cc1ccc(/C=N/c2ccc(NC(=S)Nc3ccccc3)cc2)cc1
TARGET_ENTITY: Escherichia coli
READOUT_NUMBER: 1.10
--
SMILES: Oc1ccc(Cl)cc1/C=N/c1ccc(NC(=S)Nc2ccccc2)cc1
TARGET_ENTITY: Escherichia coli
READOUT_NUMBER: 0.80
--
SMILES: S=C(Nc1ccccc1)Nc1ccc(/N=C/c2ccc(Cl)cc2)cc1
TARGET_ENTITY: Escherichia coli
READOUT_NUMBER: 0.80
--
SMILES: Oc1ccc(Br)cc1/C=N/c1ccc(NC(=S)Nc2ccccc2)cc1
TARGET_ENTITY: Escherichia coli
READOUT_NUMBER: 1.40
--
SMILES: S=C(Nc1ccccc1)Nc1ccc(/N=C/c2ccc(Cl)cc2Cl)cc1
TARGET_ENTITY: Escherichia coli
READOUT_NUMBER: 1.10
--
SMILES: CC1(C)S[C@@H]2[C@H](NC(=O)Cc3ccccc3)C(=O)N2[C@H]1C(=O)O
TARGET_ENTITY: Escherichia coli
READOUT_NUMBER: 0.50
